# test-description: Toxicity in C57BL/6 mouse assessed as mortality at 50 mg dosed as oral gavage as single bolus and measured after 24 hrs relative to control
# Format: organism-based
# test-conditions: in vivo, read-out: Activity
property-measured: mortality at 24 h (%)
Numbers only, in %.

Form field: reported mortality at 24 h of C/C(=C\CC/C(C)=C/CC[C@]1(C)CCc2cc(O)cc(C)c2O1)CC/C=C(\C)C(=O)O
33

====

# target-or-test-system: Nuclear receptor subfamily 1 group I member 2 (Homo sapiens)
# Sequence (O75469 whole entry, the tested form may be a part): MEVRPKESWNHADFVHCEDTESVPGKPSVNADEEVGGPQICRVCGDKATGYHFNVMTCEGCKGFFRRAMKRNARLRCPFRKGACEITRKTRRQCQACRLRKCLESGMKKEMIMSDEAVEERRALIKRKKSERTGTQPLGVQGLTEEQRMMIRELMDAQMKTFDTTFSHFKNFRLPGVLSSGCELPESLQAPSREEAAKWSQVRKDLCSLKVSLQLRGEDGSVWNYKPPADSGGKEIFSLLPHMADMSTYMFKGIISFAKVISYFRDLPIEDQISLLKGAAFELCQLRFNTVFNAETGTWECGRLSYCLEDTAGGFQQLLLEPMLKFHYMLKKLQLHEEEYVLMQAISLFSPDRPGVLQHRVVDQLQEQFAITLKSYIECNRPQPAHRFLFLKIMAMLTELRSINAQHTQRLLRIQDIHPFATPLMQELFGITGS
# test-description: Agonist activity at His-tagged PXR-LBD/SRC-1p (unknown origin) expressed in Escherichia coli BL21(DE3) by coactivator recruitment based Alpha-screen assay
# test-conditions: read-out: EC50
Assign EC50 to each entry below.

Example entries begin here.
C/C(=C\CC/C(C)=C/CC[C@]1(C)CCc2cc(O[C@@H]3O[C@H](C(=O)O)[C@@H](O)[C@H](O)[C@H]3O)cc(C)c2O1)CC/C=C(\C)C(=O)O | 17000 nM
C/C(=C\CC/C(C)=C/CC[C@]1(C)CCc2cc(O)cc(C)c2O1)CC/C=C(\C)C(=O)O | 1300 nM

Now consider a different molecule.
Quick one: EC50 for Cc1c(C)c2c(c(C)c1O)CC[C@@](C)(CCCC(C)CCCC(C)CCCC(C)CO)O2 (stereo partly drawn) ?
1500 nM
